system: murine Abcg2; construct: from tissue; host or cells: whole animal: wild-type vs Abcg2-/- mice, >99% FVB/N background; assay: Tissue distribution in wild-type and Abcg2−/− male mice; assay type: in vivo; conditions: FVB/N, mouse, small intestine, sc; wild-type male mice, 24 h, 10 mg/kg s.c.; read-out: Levels of nitroxynil in small intestine
Measurement kind: concentration at 24 h (µg/mL)
Numbers only, in µg/mL.

Query: // fetch concentration at 24 h for N#Cc1cc(I)c(O)c([N+](=O)[O-])c1 ; system: murine Abcg2
Response: 1.1

====

system: murine Abcg2; assay: Milk secretion experiment in lactating wild-type and Abcg2−/− female mice; assay type: in vivo; conditions: FVB/N, mouse, plasma, intravenous; lactating Abcg2−/− female mice, 30 min after 10 mg/kg i.v.; read-out: Plasma concentration
Measurement kind: concentration at 30 min

Query: Return reported concentration at 30 min. Input molecule: N#Cc1cc(I)c(O)c([N+](=O)[O-])c1 [nitroxynil]
Response: 62.8 µg/mL

====

tested on: murine Abcg2; construct: from tissue; host or cells: whole animal: wild-type vs Abcg2-/- mice, >99% FVB/N background; assay: Tissue distribution in wild-type and Abcg2−/− male mice; assay type: in vivo; conditions: FVB/N, mouse, testis, sc; wild-type male mice, 24 h, 10 mg/kg s.c.; read-out: Concentration in testis
Measurement kind: concentration at 24 h (ng/mL)
One number for each entry, in ng/mL.

Query: Return reported concentration at 24 h. Input compound: N#Cc1cc(I)c(O)c([N+](=O)[O-])c1
Response: 2600

====

tested on: murine Abcg2; construct: from tissue; host or cells: whole animal: wild-type vs Abcg2-/- mice, >99% FVB/N background; experiment: Tissue distribution in wild-type and Abcg2−/− male mice; assay type: in vivo; settings: FVB/N, mouse, kidney, sc; wild-type male mice, 24 h, 10 mg/kg s.c.; read-out: Tissue concentration, kidney
Measurement kind: concentration at 24 h (ng/g)
Give bare numbers, in ng/g.

Query: Return reported concentration at 24 h. Input compound: N#Cc1cc(I)c(O)c([N+](=O)[O-])c1
Response: 5900

====

tested on: murine Abcg2; construct: from tissue; host or cells: whole animal: wild-type vs Abcg2-/- mice, >99% FVB/N background; experiment: Tissue distribution in wild-type and Abcg2−/− male mice; assay type: in vivo; settings: FVB/N, mouse, spleen, sc; wild-type male mice, 24 h, 10 mg/kg s.c.; read-out: Tissue concentration, spleen
Measurement kind: concentration at 24 h (ng/g)
Numbers only, in ng/g.

Query: Return reported concentration at 24 h. Input compound: N#Cc1cc(I)c(O)c([N+](=O)[O-])c1 [nitroxynil]
Response: 1400

====

system: murine Abcg2; assay: Tissue distribution in wild-type and Abcg2−/− male mice; type: in vivo; conditions: FVB/N, mouse, testis, sc; Abcg2−/− male mice, 96 h, 10 mg/kg s.c.; read-out: Tissue concentration, testis
Measurement kind: concentration at 96 h (ng/g)
Give bare numbers, in ng/g.

Query: Return reported concentration at 96 h. Input compound: N#Cc1cc(I)c(O)c([N+](=O)[O-])c1 [nitroxynil]
Response: 1100

====

system: ovine ABCG2; assay: Transepithelial transport assay in MDCK-II cells transduced with ovine ABCG2; assay type: in vitro ADME; details: sheep, MDCK-II oABCG2, nitroxynil 10 µM, no Ko143, read-out: Relative efflux transport ratio (BA/AB)
Measurement kind: efflux ratio at 4 h, 10 µM
Give bare numbers.

Query: Return reported efflux ratio at 4 h, 10 µM. Input compound: N#Cc1cc(I)c(O)c([N+](=O)[O-])c1 [nitroxynil]
Response: 27.4

====

system: murine Abcg2; assay: Tissue distribution in wild-type and Abcg2−/− male mice; type: in vivo; conditions: FVB/N, mouse, spleen, sc; Abcg2−/− male mice, 24 h, 10 mg/kg s.c.; read-out: Tissue concentration, spleen
Measurement kind: concentration at 24 h (ng/g)
Answers are plain numbers, in ng/g.

Query: Return reported concentration at 24 h. Input compound: N#Cc1cc(I)c(O)c([N+](=O)[O-])c1 [nitroxynil]
Response: 2500

====

system: murine Abcg2; assay: Plasma pharmacokinetics in wild-type and Abcg2−/− male mice; type: in vivo; settings: FVB/N, mouse, plasma, sc; Abcg2−/− male mice, 10 mg/kg s.c., 0.5-96 h
Measurement kind: AUC (µg·h/mL)
Answers are plain numbers, in µg·h/mL.

Query: Return reported AUC. Input compound: N#Cc1cc(I)c(O)c([N+](=O)[O-])c1
Response: 3530

====

test: Transepithelial transport assay in parental MDCK-II monolayers; format: in vitro ADME, canine; conditions: dog, nitroxynil 10 µM, no Ko143, read-out: Relative efflux transport ratio (BA/AB)
Measurement kind: efflux ratio at 4 h, 10 µM
Answers are plain numbers.

Query: Return reported efflux ratio at 4 h, 10 µM. Input molecule: N#Cc1cc(I)c(O)c([N+](=O)[O-])c1
Response: 1.04

====

System: murine Abcg2
Construct: from tissue; host or cells: whole animal: wild-type vs Abcg2-/- mice, >99% FVB/N background
Assay: Tissue distribution in wild-type and Abcg2−/− male mice
Format: in vivo
Details: FVB/N, mouse, liver, sc; wild-type male mice, 24 h, 10 mg/kg s.c.; read-out: Tissue concentration, liver
Protocol: All in vivo experiments were carried out using wild-type and Abcg2^−/− mice aged between 8 and 17 weeks, all of >99% FVB/N genetic background, generated and gently supplied by A. H. Schinkel (Netherlands Cancer Institute). […] Plasma, milk and tissue samples from each animal were individually processed and analyzed without pooling, while samples from transport assays were not processed. […]
Measurement kind: concentration at 24 h (ng/g)
One number for each entry, in ng/g.

Query: Return reported concentration at 24 h. Input compound: N#Cc1cc(I)c(O)c([N+](=O)[O-])c1
Response: 900

====

system: murine Abcg2; test: Tissue distribution in wild-type and Abcg2−/− male mice; assay type: in vivo; settings: FVB/N, mouse, small intestine, sc; Abcg2−/− male mice, 24 h, 10 mg/kg s.c.; read-out: Levels of nitroxynil in small intestine
Measurement kind: concentration at 24 h (ng/mL)
Numbers only, in ng/mL.

Query: Return reported concentration at 24 h. Input compound: N#Cc1cc(I)c(O)c([N+](=O)[O-])c1 [nitroxynil]
Response: 1600

====

molecular target: murine Abcg2 (Mus musculus, UniProt Q7TMS5); test: Transepithelial transport assay in MDCK-II cells transduced with murine Abcg2; format: in vitro ADME; parameters: expressed in transfected cells; host or cells: MDCK-II (canine kidney) subclone, provided by A. H. Schinkel (Netherlands Cancer Institute); conditions: MDCK-II mAbcg2, nitroxynil 10 µM, no Ko143, read-out: Relative efflux transport ratio (BA/AB)
Sequence (Q7TMS5 whole entry): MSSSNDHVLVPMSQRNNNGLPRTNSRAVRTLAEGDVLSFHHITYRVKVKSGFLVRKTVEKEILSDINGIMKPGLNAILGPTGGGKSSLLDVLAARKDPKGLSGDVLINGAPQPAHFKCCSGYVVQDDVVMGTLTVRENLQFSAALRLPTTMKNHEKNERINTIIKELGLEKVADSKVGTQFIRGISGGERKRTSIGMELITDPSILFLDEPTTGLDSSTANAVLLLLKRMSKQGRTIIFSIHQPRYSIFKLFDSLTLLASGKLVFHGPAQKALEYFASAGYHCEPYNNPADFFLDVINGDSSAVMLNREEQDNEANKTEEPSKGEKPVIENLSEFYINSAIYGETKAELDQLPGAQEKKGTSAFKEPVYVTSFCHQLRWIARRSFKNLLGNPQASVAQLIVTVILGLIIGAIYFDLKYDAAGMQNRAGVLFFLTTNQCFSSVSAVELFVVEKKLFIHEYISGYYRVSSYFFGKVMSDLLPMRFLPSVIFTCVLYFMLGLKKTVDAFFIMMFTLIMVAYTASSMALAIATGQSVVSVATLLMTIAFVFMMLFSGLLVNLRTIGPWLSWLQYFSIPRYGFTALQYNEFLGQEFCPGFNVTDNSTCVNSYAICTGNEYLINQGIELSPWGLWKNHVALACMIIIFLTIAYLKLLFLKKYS
Measurement kind: efflux ratio at 4 h, 10 µM

Query: Return reported efflux ratio at 4 h, 10 µM. Input molecule: N#Cc1cc(I)c(O)c([N+](=O)[O-])c1 [nitroxynil]
Response: 32.3

====

tested on: murine Abcg2; construct: from tissue; host or cells: whole animal: wild-type vs Abcg2-/- mice, >99% FVB/N background; test: Tissue distribution in wild-type and Abcg2−/− male mice; type: in vivo; details: FVB/N, mouse, small intestine, sc; wild-type male mice, 24 h, 10 mg/kg s.c.; read-out: Tissue concentration, small intestine
Measurement kind: concentration at 24 h (ng/g)
One number for each entry, in ng/g.

Query: // fetch concentration at 24 h for N#Cc1cc(I)c(O)c([N+](=O)[O-])c1 ; system: murine Abcg2
Response: 1100

====

test system: murine Abcg2; assay: Milk secretion experiment in lactating wild-type and Abcg2−/− female mice; assay type: in vivo; conditions: FVB/N, mouse, milk, intravenous; lactating Abcg2−/− female mice, 30 min after 10 mg/kg i.v.; read-out: Milk concentration
Measurement kind: concentration at 30 min (ng/mL)
Answers are plain numbers, in ng/mL.

Query: // fetch concentration at 30 min for N#Cc1cc(I)c(O)c([N+](=O)[O-])c1 [nitroxynil] ; system: murine Abcg2
Response: 8100

====

Molecular target: human ABCG2 (Homo sapiens, UniProt Q9UNQ0)
Construct: expressed in transfected cells; host or cells: MDCK-II (canine kidney) subclone, provided by A. H. Schinkel (Netherlands Cancer Institute)
Sequence (Q9UNQ0 1-655): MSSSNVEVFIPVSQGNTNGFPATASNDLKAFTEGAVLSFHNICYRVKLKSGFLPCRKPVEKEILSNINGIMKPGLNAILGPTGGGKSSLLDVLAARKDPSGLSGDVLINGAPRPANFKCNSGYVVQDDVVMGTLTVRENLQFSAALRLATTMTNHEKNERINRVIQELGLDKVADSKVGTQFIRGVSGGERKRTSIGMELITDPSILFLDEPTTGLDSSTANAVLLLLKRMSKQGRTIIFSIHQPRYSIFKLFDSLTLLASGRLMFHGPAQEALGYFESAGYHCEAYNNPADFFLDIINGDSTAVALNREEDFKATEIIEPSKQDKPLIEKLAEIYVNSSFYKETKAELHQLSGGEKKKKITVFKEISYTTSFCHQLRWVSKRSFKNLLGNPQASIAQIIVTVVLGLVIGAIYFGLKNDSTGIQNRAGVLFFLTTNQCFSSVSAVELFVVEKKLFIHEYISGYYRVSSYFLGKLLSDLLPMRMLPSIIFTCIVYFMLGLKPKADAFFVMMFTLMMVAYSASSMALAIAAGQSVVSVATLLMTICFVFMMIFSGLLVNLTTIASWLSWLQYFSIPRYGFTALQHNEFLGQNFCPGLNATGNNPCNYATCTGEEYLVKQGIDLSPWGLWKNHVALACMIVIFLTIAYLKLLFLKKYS
Assay: Transepithelial transport assay in MDCK-II cells transduced with human ABCG2
Type: in vitro ADME
Settings: MDCK-II hABCG2, nitroxynil 10 µM, no Ko143, read-out: Relative efflux transport ratio (BA/AB)
Measurement kind: efflux ratio at 4 h, 10 µM
One number for each entry.

Query: Return reported efflux ratio at 4 h, 10 µM. Input molecule: N#Cc1cc(I)c(O)c([N+](=O)[O-])c1 [nitroxynil]
Response: 8.76

Values compiled from paper PMC11054271.
